Known % Inhibition @ 10 uM of a selection of molecules
target: DPAP1 (Plasmodium falciparum, UniProt Q8IIJ9); assay: primary screen, percent inhibition; read by cleavage of a fluorogenic dipeptide substrate; higher = more effect of the substance; parameters: species or system P. falciparum D10 trophozoite lysates; single well;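 note: 30 min substrate incubation versus DMSO and 10 µM JCP410 controls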
Sequence (Q8IIJ9 whole entry, looked up): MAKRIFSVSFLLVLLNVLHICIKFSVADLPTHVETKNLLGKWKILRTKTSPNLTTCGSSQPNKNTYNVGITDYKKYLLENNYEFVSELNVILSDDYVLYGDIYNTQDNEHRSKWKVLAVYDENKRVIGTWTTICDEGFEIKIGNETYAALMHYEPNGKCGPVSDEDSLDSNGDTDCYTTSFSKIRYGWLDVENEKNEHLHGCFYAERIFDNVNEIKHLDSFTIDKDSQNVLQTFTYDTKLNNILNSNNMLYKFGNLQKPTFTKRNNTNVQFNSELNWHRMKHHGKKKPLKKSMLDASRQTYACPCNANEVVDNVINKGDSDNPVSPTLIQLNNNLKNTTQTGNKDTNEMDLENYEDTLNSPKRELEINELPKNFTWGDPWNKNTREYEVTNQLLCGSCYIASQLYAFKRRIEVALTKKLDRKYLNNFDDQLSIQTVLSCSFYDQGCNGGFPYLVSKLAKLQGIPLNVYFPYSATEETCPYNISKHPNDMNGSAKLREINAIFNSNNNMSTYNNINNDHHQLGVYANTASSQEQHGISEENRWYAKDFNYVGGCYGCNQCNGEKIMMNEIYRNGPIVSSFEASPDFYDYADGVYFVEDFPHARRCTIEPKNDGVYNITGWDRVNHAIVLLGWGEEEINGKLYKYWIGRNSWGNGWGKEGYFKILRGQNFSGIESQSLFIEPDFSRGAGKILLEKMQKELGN
About 230 (0.21%) of roughly 110,000 compounds showed an effect of 50% or more. The entries come from a sample that favours strong results as a whole.

>  <molecule>
OC(c1ccccc1)c1nc2ccccc2n1CCc1ccccc1 (stereo not drawn)

>  <% Inhibition @ 10 uM / %>
-2.92

$$$$
>  <molecule>
Nc1c(C(=O)Nc2ccccn2)sc2nc(-c3cccs3)cc(C(F)(F)F)c12

>  <% Inhibition @ 10 uM / %>
-5.07

$$$$
>  <molecule>
O=C(c1nc2ccccc2s1)c1conc1C(=O)c1cccs1

>  <% Inhibition @ 10 uM / %>
4.03

$$$$
>  <molecule>
O=C(c1cccs1)c1conc1C(=O)c1ccc(Br)cc1

>  <% Inhibition @ 10 uM / %>
93.8

$$$$
>  <molecule>
CCOc1cc(-c2cc(-c3ccc(N)cc3)nc(N)c2C#N)ccc1O

>  <% Inhibition @ 10 uM / %>
3.26

$$$$
>  <molecule>
O=[N+]([O-])c1ccc(CSc2ccc(Cl)cc2)cc1

>  <% Inhibition @ 10 uM / %>
2.22

$$$$
>  <molecule>
NS(=O)(=O)c1ccc(NC(=O)c2cccs2)cc1

>  <% Inhibition @ 10 uM / %>
7.24

$$$$
>  <molecule>
CC(=O)ONc1ccc(NC=C2C(=O)N(C)C(=O)N(C)C2=O)cc1

>  <% Inhibition @ 10 uM / %>
8.6

$$$$
>  <molecule>
O=C(c1sc(N2CCOCC2)nc1-c1ccccc1)c1c[nH]c2ccccc12

>  <% Inhibition @ 10 uM / %>
72.2

$$$$
>  <molecule>
CCOc1ccc(C(=O)NCC2CCN(C(=O)c3ccc(OCC)cc3)CC2)cc1

>  <% Inhibition @ 10 uM / %>
5

$$$$
>  <molecule>
COc1cc(-c2nnc3sc(/C=C/c4ccccc4)nn23)cc(OC)c1OC

>  <% Inhibition @ 10 uM / %>
59.6

$$$$
>  <molecule>
CC(C)C1Nc2c(C(=O)O)cccc2C2C=CCC21 (stereo not drawn)

>  <% Inhibition @ 10 uM / %>
-1.2

$$$$
>  <molecule>
COc1ccc(C2N=C(NO)c3ccccc3N2)cc1 (stereo not drawn)

>  <% Inhibition @ 10 uM / %>
-0.424

$$$$
>  <molecule>
O=C(c1ccccn1)c1conc1C(=O)c1ccc(Br)cc1

>  <% Inhibition @ 10 uM / %>
3.72

$$$$
>  <molecule>
CN1CSC2=C(C#N)C(c3ccc(Br)cc3)CC(=O)N2C1 (stereo not drawn)

>  <% Inhibition @ 10 uM / %>
43.4

$$$$
>  <molecule>
CN(Cc1cnn(-c2ccccc2)c1)S(=O)(=O)c1ccc(-c2cc(C(F)(F)F)no2)s1

>  <% Inhibition @ 10 uM / %>
1.05

$$$$
>  <molecule>
CCCC(=O)NCCc1nc2ccccc2n1CC(C)C

>  <% Inhibition @ 10 uM / %>
0.121

$$$$
>  <molecule>
Nc1nc(S)nc2sc3c(c12)CCN(Cc1ccccc1)C3

>  <% Inhibition @ 10 uM / %>
54.1

$$$$
>  <molecule>
Nc1c(C(=O)Nc2nccs2)sc2nc(-c3cccs3)cc(C(F)(F)F)c12

>  <% Inhibition @ 10 uM / %>
76.8

$$$$
>  <molecule>
CCOc1ccc(-c2cc(C)n3nc(C(=O)NCc4ccco4)cc3n2)cc1

>  <% Inhibition @ 10 uM / %>
0.221

$$$$
>  <molecule>
Cc1nc2c(C(=O)n3ccnc3)cnn2c(C)c1Cc1ccccc1Cl

>  <% Inhibition @ 10 uM / %>
-0.406

$$$$
>  <molecule>
Cc1ccc2oc(=O)c3cc(C(=O)Nc4cc(C)on4)sc3c2c1

>  <% Inhibition @ 10 uM / %>
-0.646

$$$$
>  <molecule>
COc1ccccc1CNC(=O)Cn1nc(C)n2c(cc3c(OC)cccc32)c1=O

>  <% Inhibition @ 10 uM / %>
-3.47

$$$$
>  <molecule>
O=C(Nc1ccc(F)c(Cl)c1)c1cc2nc(C(F)F)cc(C(F)F)n2n1

>  <% Inhibition @ 10 uM / %>
-8.02

$$$$
